# measured.target: HRgpA-6H (Porphyromonas gingivalis) (UniProt P28784)
# measurement.protocol: SPR Biacore 8K; table lists HRgpA-6H as ligand, antibody as analyte
assay.metric: koff (s⁻¹)
Just the number in s⁻¹, nothing appended.

Data point: H14 K222A (antibody, V domains shown) VH: QVQLQESGPGLVKPSETLSLTCTVSGFSLSIYSVHWIRQPPGKGLEWLGMIWGGGSSDYNSALKSRLTISKDTSKNQVSLKLSSVTAADTAMYYCARNGNFYAMDYWGQGTLVTVSS VL: EIVLTQSPGTLSLSPGERATLSCTASSSVSSSFLHWYQQKPGQAPQLWIYSTSNLASGIPDRFSGSGSGTDYTLTISRLEPEDFAVYYCHQYHHSPYIYTFGGGTKLEIK ; koff = 6.53e-05
